System: TRPC4 beta (transient receptor potential cation channel C4), mouse
Experiment: potentiation of DAMGO EC20 TRPC4 response – cell-based, Fluo-4, HEK293 TRPC4beta/mu-opioid, confirmation (AID 2555)
Conditions: DAMGO EC20, Fluo-4 calcium flux, at 10 µM
Calls of active or inactive are those of the source.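 How the source made its calls: active means primary screen hit whose calcium fluorescence ratio, in both repeats, exceeds the weak agonist control mean by 3 SD; inactive means the rest.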
// one of yes (1) (active), no (0) (inactive), no free text

Here are 4 compounds together with their reported answers.
* Cc1cc(Br)cc(C)c1OCCCCN(C)C | no (0)
* CN(CC(=O)NC1CCCc2ccccc21)C1CCCCC1 (configuration not stated) | no (0)
* CC(=O)Oc1ccc(NC(=O)CCC2CCCCC2)c(C(=O)O)c1 | no (0)
* COC(=O)[C@@]12CCCCN1[C@H](c1ccc(-c3cccc(Cl)c3)c(OC)c1)[C@H]1C(=O)N(C)C(=O)[C@H]12 | yes (1)

Query: Answer briefly: the call reported for CCOC(=O)c1c(NC(=O)C2CCCCC2C(=O)O)sc2c1CCCCC2 (configuration not stated) in this assay.
Response: no (0)

Query: Answer briefly: the call reported for COc1cccc(N(C(=O)c2snc(C(N)=O)c2N)C(C(=O)NCC2CCCO2)c2ccc3ncccc3c2)c1 (configuration not stated) in this assay.
Response: no (0)

Query: Answer briefly: the call reported for O=C1C(Cl)=C(Nc2cccc(O)c2)C(=O)N1Cc1ccccc1 in this assay.
Response: yes (1)

Query: Answer briefly: the call reported for CCCCN(CC)CCNC(=O)c1cc2c(=O)n(C)c3ccccc3c2s1 in this assay.
Response: yes (1)

Query: Answer briefly: the call reported for CCn1c(C2CC(=O)N(Cc3ccccc3)C2)nc2ccccc21 (configuration not stated) in this assay.
Response: yes (1)

Query: Answer briefly: the call reported for CCOC(=O)c1cnc2ccc(Cl)cc2c1NCCN(C)C in this assay.
Response: no (0)

Query: Answer briefly: the call reported for CCCCN(C)C(=O)Cn1ncc2c3ccccc3n(CCC)c2c1=O in this assay.
Response: yes (1)

Query: Answer briefly: the call reported for CCOC(=O)CC(NC(=O)c1cc2cc(Cl)cc(Cl)c2oc1=O)c1cccc([N+](=O)[O-])c1 (configuration not stated) in this assay.
Response: yes (1)

From: PubChem BioAssay
